Molecular target: Short transient receptor potential channel 4 (Mus musculus)
Sequence (Q9QUQ5 whole entry): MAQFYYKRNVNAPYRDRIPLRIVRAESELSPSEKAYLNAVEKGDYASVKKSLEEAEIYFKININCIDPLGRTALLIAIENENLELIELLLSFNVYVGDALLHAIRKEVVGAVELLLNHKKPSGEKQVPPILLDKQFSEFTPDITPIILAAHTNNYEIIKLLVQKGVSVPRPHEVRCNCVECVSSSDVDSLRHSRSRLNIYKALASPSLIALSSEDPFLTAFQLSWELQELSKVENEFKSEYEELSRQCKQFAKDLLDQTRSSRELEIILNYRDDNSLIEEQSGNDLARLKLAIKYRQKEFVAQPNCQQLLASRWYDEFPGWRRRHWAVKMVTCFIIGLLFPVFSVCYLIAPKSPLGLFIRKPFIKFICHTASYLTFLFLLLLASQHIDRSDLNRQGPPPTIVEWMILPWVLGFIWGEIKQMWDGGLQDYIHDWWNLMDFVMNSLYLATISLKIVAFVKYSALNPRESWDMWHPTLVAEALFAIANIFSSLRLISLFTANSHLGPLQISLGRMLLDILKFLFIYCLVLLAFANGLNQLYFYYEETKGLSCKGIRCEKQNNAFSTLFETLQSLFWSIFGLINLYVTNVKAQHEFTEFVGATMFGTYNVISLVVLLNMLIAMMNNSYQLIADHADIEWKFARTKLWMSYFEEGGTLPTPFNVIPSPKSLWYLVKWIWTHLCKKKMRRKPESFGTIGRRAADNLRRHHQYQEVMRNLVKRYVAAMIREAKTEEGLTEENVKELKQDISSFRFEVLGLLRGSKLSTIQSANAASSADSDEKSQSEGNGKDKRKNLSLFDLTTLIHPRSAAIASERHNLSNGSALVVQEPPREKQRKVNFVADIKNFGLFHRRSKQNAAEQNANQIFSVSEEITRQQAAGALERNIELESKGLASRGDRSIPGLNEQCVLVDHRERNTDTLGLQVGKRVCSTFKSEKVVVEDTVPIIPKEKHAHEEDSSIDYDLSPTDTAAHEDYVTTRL
Assay: block of DAMGO-driven TRPC4 calcium entry – cell-based, HEK293 TRPC4/mu-opioid, Fluo-4 calcium, dose response (AID 434942);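 also: potency of inhibitors blocking the TRPC4 calcium response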
Format: functional
Active and inactive are the calls of the source.
Measured EC50 values are reported for all entries that follow.

compound | recorded.measurement
O=Cc1cc(N=Nc2ccccc2Cl)ccc1O | 15 µM (active)

Input: Quick check: EC50 of "O=C(O)c1ccc(NC(=S)NC(=O)c2ccc(-c3ccccc3)cc2)cc1" ?
Output: 4.73 µM (active)

Input: And what about the compound "Cc1ccc(O)c(Sc2cc(C)ccc2O)c1" ?
Output: 3.76 µM (active)

Input: And what about the compound CCC(C)NC(C(=O)Nc1ccc(Cl)c([N+](=O)[O-])c1)c1ccccc1 (stereo unspecified) ?
Output: 7.5 µM (active)

Input: And what about the compound "Cc1ccc(-c2csc(N(CCCN(C)C)C(=O)c3ccco3)n2)cc1" ?
Output: 2.11 µM (active)

Input: And what about the compound CC1CCCCN1CCCNC(=O)c1nn(C)c2c1CSc1ccccc1-2 (stereo unspecified) ?
Output: 4.22 µM (active)

----------
Biological target: Genome polyprotein (dengue virus type 2, UniProt P29990)
Test: flavivirus cap methylation enzyme inhibition – biochemical, confirmation dose response, primary screen (AID 588689)
Assay type: functional
The source made the active and inactive calls.
recorded.endpoint: IC50

# annotated cases, reported IC50 shown
compound | system.under.test | recorded.measurement
CCCCNC(=O)c1onc(CSc2cccc3ccccc23)c1C(=O)O | Genome polyprotein (dengue virus type 2, UniProt P29990) | 49.6 µM (active)
Cc1cc(C)c2nc(N3C(=O)C(O)=C(C(=O)c4ccco4)C3c3ccc(O)cc3)sc2c1 (configuration not stated) | Genome polyprotein (dengue virus type 2, UniProt P29990) | 30.4 µM (active)
Cc1ccc(NS(=O)(=O)c2ccc(N/N=C/c3ccccc3OCC(=O)O)c([N+](=O)[O-])c2)c(C)c1 | Genome polyprotein (dengue virus type 2, UniProt P29990) | 43.9 µM (active)

Input: Quick check: IC50 of "COc1cc(/C=N\Nc2ccc([N+](=O)[O-])cc2)ccc1OCC(=O)Nc1ccc(C)c(C)c1" ?
Output: 26.3 µM (active)

Input: And what about the compound "COc1cc(/C=C2\SC(NS(=O)(=O)Cc3ccccc3)=NC2=O)c([N+](=O)[O-])cc1OC" ?
Output: 55.8 µM (active)

Input: And what about the compound "O=C1NC(=O)N(c2ccc3c(c2)OCO3)C(=O)/C1=C\c1ccc(-c2ccccc2C(=O)O)o1" ?
Output: > 100 µM (active)

Input: And what about the compound COC(=O)CCC(=O)OC1(C)C(=O)C2=CN(C3CCCC3)C(c3ccc(OC)cc3)=CC2=C(Br)C1=O (configuration not stated) ?
Output: 33.8 µM (active)

----------
Assay: Luminescence Cell-Based Dose Retest to Confirm Inhibitors of Cancer Stem Cells. [Related pubchem assays (depositor defined):AID2717, AID2721]
Assay type: functional
Conditions: Homo sapiens
Calls of active or inactive are those of the source.
Measured AC50 values are reported for all entries that follow.

# annotated cases, reported AC50 shown
compound | AC50
CN1CCN(S(=O)(=O)c2cccc(C(=O)Nc3cc(C(F)(F)F)ccc3N3CCCCC3)c2)CC1 | 2.5 µM (active)
CCC(C)Sc1cccc(-c2nc3ccc(C)cn3c2NCc2ccccc2)c1 (centres undefined) | 2.75 µM (active)
COc1ccc(CCNc2cc(C)nc3c(-c4ccc(Cl)cc4)cnn23)cc1OC | 4.77 µM (active)

Field: next compound
Input: Quick check: AC50 of "COc1ccc(-c2c(C)nn3c(N)c(-c4ccccc4)cnc23)cc1OC" ?
Output: 11.9 µM (active)

----------
Target: Streptokinase A (Streptococcus pyogenes serotype M1, UniProt P10520)
Sequence (P10520 whole entry): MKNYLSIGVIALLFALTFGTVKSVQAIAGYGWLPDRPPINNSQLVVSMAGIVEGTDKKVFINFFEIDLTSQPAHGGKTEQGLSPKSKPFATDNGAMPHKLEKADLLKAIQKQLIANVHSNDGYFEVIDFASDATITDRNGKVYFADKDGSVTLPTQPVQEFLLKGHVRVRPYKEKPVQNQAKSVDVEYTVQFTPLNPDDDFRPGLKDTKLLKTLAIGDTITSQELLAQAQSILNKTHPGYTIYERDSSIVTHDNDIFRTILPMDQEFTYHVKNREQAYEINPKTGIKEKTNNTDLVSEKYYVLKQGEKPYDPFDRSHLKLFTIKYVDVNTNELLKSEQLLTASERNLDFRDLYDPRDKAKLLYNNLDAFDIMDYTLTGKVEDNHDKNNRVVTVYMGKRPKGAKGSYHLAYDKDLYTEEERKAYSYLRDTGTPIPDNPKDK
Assay: viability-normalized secreted streptokinase activity reduction – plasminogen activation absorbance, OD405, dose response (AID 1914);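 also: secreted streptokinase activity via plasminogen activation per viability signal from cell pellet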
Assay type: functional, Streptococcus pyogenes M1 GAS
Activity calls are given as the source filed them.
recorded.endpoint: EC50

# annotated cases, reported EC50 shown
molecule | EC50
COc1cc(/C=C2\S/C(=N\c3ccccc3)N(CCc3c[nH]c4ccccc34)C2=O)ccc1OC(C)C(=O)O (stereo not given) | 4.12 µM (active)
O=C1c2[nH]nc(-c3ccccc3O)c2C(c2cccc(Cl)c2)N1Cc1ccco1 (stereo not given) | 15.8 µM (active)
COc1ccc(C(=O)NCC(=O)OCC(=O)N2N=C(c3ccc(Cl)cc3)CC2c2ccco2)cc1OC (stereo not given) | > 150 µM (not active)
O=C(NC(=S)N1CCCCC1c1cccnc1)c1ccc(F)cc1 (stereo not given) | > 150 µM (not active)

Input: Given the entry "O=S(=O)(Nc1ccc(-c2csc(-c3ccccc3)n2)cc1)c1ccc(F)cc1" , what EC50 was observed with Streptokinase A (Streptococcus pyogenes serotype M1, UniProt P10520)?
Output: 8.48 µM (active)

----------
Molecular target: Heat shock factor protein 1 (Mus musculus, UniProt P38532)
Sequence (P38532 whole entry): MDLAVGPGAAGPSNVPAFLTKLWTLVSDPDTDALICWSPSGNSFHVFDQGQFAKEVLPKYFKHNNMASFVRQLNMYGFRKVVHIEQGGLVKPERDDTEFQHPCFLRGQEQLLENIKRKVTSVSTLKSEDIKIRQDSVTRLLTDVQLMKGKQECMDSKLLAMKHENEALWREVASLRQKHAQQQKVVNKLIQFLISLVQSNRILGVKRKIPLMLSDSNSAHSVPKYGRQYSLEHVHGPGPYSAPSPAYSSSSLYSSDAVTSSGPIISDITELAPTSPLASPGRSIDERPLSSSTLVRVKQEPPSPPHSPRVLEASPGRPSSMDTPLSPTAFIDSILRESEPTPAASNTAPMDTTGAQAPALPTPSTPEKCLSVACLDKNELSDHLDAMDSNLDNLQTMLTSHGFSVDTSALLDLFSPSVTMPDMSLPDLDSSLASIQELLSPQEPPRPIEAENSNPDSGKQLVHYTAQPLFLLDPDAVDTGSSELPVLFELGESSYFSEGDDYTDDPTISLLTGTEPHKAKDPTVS
Assay: enhancement of HSF1-driven luciferase signal – cell-based, NIH3T3, luminescence, dose retest, confirmation (AID 435004);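 also: stress induced by proteasome inhibitor MG132 added 30 min after compound; luciferase reporter driven by HSF1 response element in NIH3T3 cells; actives raise luminescence as potentiators of the MG132 stress response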
Type: functional
The source made the active and inactive calls.
Form entry, call: pick from active, inactive

compound | category
CCOC(=O)C1(Cc2ccc(OC)cc2)CCN(C(=O)c2cc3ccccc3[nH]2)CC1 | active
CSc1cc(-c2ccco2)oc1C(=O)c1ccco1 | inactive
Cc1nnc(Sc2nc3c(c(=O)n(C)c(=O)n3C)n2Cc2ccccc2Cl)s1 | inactive
CCN=C(S)N1CCN(S(=O)(=O)c2cccc(C(F)(F)F)c2)CC1 | inactive

Input: What classification did "CCc1cc(=O)oc2c(CNCc3ccccc3F)c(O)c(Cl)cc12" end up with in this test?
Output: inactive

Input: And what about the compound "Cc1nc2ncnn2c(C)c1CCC(=O)NCc1ccco1" ?
Output: inactive

Input: And what about the compound Cc1cc2nc(CCN(C(S)=NCC3CCCO3)C3CCCC3)[nH]c2cc1C (stereo not given) ?
Output: inactive

Input: And what about the compound "O=C(CCCC1=NS(=O)(=O)c2ccccc2N1)N1CCN(c2ccccc2)CC1" ?
Output: inactive

Input: And what about the compound "CCn1c(SCC(=O)N/N=C/C=C/c2ccco2)nc2ccccc21" ?
Output: inactive

----------
Experiment: luciferase reporter signal suppression in cells – H4 neuroglioma cells, luminescence, dose response (AID 1990)
Type: functional, cell-based
The source made the active and inactive calls.
recorded.endpoint: EC50

input.smiles | recorded.endpoint | recorded.measurement
CCOC(=O)c1c(CSc2ccc(CC)cc2)oc2ccc(O)c(CN(C)C)c12 | EC50 | > 120 µM (not active)
Cc1ccc(NS(=O)(=O)c2ccc(-c3cnc(C4CC4)o3)cc2)c(C)c1 | EC50 | 4.97 µM (inconclusive)
CCOC(=O)c1c(C)[nH]c(C(=O)Nc2ccc(NC(C)=O)cc2)c1C | EC50 | 10.9 µM (active)

Input: Quick check: EC50 of "O=C(CCCN1C(=O)/C(=C/c2ccc3c(c2)OCO3)SC1=S)Nc1cccc(C(=O)O)c1" ?
Output: 10.2 µM (active)

Input: And what about the compound "CCOC(=O)Cn1nnc2c(sc3nc4c(c(-c5ccccc5)c32)CCC4)c1=O" ?
Output: > 120 µM (not active)

Input: And what about the compound "O=S(=O)(NCCc1csc(-c2cccnc2)n1)c1ccc2c(c1)OCCO2" ?
Output: > 120 µM (not active)

----------
Measured AC50 on Cytochrome P450 2C9 (Homo sapiens) follows.
Sequence (P11712 whole entry): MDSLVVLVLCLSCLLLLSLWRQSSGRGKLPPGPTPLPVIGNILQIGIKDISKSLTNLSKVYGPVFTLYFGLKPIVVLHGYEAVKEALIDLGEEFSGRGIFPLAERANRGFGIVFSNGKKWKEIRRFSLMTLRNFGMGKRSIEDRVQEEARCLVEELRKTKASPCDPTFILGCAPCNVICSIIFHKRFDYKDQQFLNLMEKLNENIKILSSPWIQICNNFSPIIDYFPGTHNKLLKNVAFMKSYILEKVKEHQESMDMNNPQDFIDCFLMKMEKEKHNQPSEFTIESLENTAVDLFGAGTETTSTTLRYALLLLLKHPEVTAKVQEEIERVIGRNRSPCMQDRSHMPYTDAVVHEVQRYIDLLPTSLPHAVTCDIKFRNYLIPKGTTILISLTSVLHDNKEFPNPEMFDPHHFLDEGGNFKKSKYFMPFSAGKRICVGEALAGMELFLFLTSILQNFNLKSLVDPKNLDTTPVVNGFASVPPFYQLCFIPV

# annotated cases, reported AC50 shown
molecule | recorded.measurement
COc1cc2c(cc1OC)-c1cc(NCc3ccccn3)nc(=O)n1CC2 | 7.94 µM (inconclusive)
CCC(CC)C(=O)Nc1cccc(/C(C)=N/NC(=O)c2c(Br)cnn2C)c1 | 8.91 µM (inconclusive)
N=C(NOC(=O)Cc1ccc(Cl)cc1)c1cccnc1 | 12.6 µM (inconclusive)

Input: Quick check: AC50 of "O=C1CN=C(c2cccs2)c2c(sc3c2CCCC3)N1" ?
Output: 35.5 µM (inconclusive)

Input: And what about the molecule "COc1ccc(-c2nc3cnc(N4CCNCC4)nc3n(Cc3cccs3)c2=O)cc1" ?
Output: 39.8 µM (inconclusive)

Input: And what about the molecule "COc1cc(/C=N\Nc2ccc([N+](=O)[O-])cc2)ccc1OCC(=O)Nc1ccc(C)c(C)c1" ?
Output: 3.16 µM (inconclusive)

Input: And what about the molecule "CSc1ccc2nnc(-c3cccc(F)c3)n2n1" ?
Output: 39.8 µM (inconclusive)

Input: And what about the molecule "COC(=O)Cn1c(C(=O)N(C)C)cc2c1C[C@H]1CN(C(=O)c3ccccc3)[C@@](Cc3ccc(OC)cc3)(C(=O)OC)[C@@H]21" ?
Output: 12.6 µM (inconclusive)

Input: And what about the molecule "COc1ccc(Oc2ncc3nc(-c4cccc(C#N)c4)c(=O)n(CCC#N)c3n2)cc1" ?
Output: 25.1 µM (inconclusive)
